Target or test system: chymotripsin (Bos taurus, UniProt P00766)
Procedure details: Chymotripsin inhibiting activity (ATEE hydrolysis)
Format: biochemical
Reported conditions: 1 × 10^-4 mole; pH 8.0, 37° C., ATEE substrate
Readout type: Chymotripsin inhibition (%)
The answer is to be given in %; state only the numeric part.

Short answer for CC(C)[C@H]1CC[C@@](C)(C(=O)COS(=O)(=O)c2ccccc2)CC1 : Chymotripsin inhibition (%) was 14

Short answer for CC[C@H]1CC[C@@](CC)(C(=O)COS(=O)(=O)c2ccccc2)CC1 : Chymotripsin inhibition (%) was 12

Short answer for Cc1ccc(S(=O)(=O)OCC(=O)C2(C)CCC(C(C)C)CC2)cc1 (centres unmarked) : Chymotripsin inhibition (%) was 35

Short answer for CC(C)C[C@H]1CC[C@](C)(C(=O)COS(=O)(=O)c2ccccc2)CC1 : Chymotripsin inhibition (%) was 15

Short answer for CC[C@H]1CC[C@](CC)(C(=O)COS(=O)(=O)c2ccccc2)CC1 : Chymotripsin inhibition (%) was 25

----------
Measured remaining at 288 h by item
Procedure details: Heat-stability on storage at 40° C. (HPLC content of undecomposed compound)
Type: physicochemical
Reported conditions: solid storage, 12th day
The answer is to be given in %; state only the numeric part.

Use these answered entries as a reference point.
CCOc1ccc(S(=O)(=O)OCC(=O)C2CCC(CC)CC2)cc1 (stereo not drawn) | 91
Cc1ccc(S(=O)(=O)OCC(=O)[C@H]2CC[C@H](C(C)(C)C)CC2)cc1 | 93

Short answer for O=C(COS(=O)(=O)c1ccccc1)C1CCCCC1 : remaining at 288 h was 85

----------
Measured pIC50 by item
Target or test system: esterase solution prepared from a purified microsome fraction of the liver of a rat
Procedure details: Esterase inhibiting activity (hydrolysis of methyl butyrate)
Reported conditions: pH 8.0, 37° C., 60 min
Please treat pIC50 as minus the base-10 logarithm of the molar concentration.

Use these answered entries as a reference point.
CC(C)[C@H]1CC[C@@](C)(C(=O)COS(=O)(=O)c2ccccc2)CC1 | 4.48
CC[C@H]1CC[C@@](CC)(C(=O)COS(=O)(=O)c2ccccc2)CC1 | 4.46
COc1ccc(S(=O)(=O)OCC(=O)C2CCC(C)(C)CC2)cc1 | 5.60

So the reported pIC50 for CC[C@H]1CC[C@](CC)(C(=O)COS(=O)(=O)c2ccccc2)CC1 , on esterase solution prepared from a purified microsome fraction of the liver of a rat, turned out to be 6.47

So the reported pIC50 for CC(C)[C@H]1CC[C@](C)(C(=O)COS(=O)(=O)c2ccccc2)CC1 , on esterase solution prepared from a purified microsome fraction of the liver of a rat, turned out to be 7.80

So the reported pIC50 for O=C(COS(=O)(=O)c1ccccc1)C1CCC2(CCCC2)CC1 , on esterase solution prepared from a purified microsome fraction of the liver of a rat, turned out to be 7.66

So the reported pIC50 for Cc1cc(C)c(S(=O)(=O)OCC(=O)C2CCC(C)(C)CC2)c(C)c1 , on esterase solution prepared from a purified microsome fraction of the liver of a rat, turned out to be 8.70

So the reported pIC50 for CCCC1(C)CCC(C(=O)COS(=O)(=O)c2ccccc2)CC1 (stereo not shown) , on esterase solution prepared from a purified microsome fraction of the liver of a rat, turned out to be 8.38

So the reported pIC50 for CC(C)C[C@H]1CC[C@](C)(C(=O)COS(=O)(=O)c2ccccc2)CC1 , on esterase solution prepared from a purified microsome fraction of the liver of a rat, turned out to be 5.66

So the reported pIC50 for O=C(COS(=O)(=O)c1ccccc1)C1CCC2(CCCCC2)CC1 , on esterase solution prepared from a purified microsome fraction of the liver of a rat, turned out to be 8.27

So the reported pIC50 for Cc1ccc(S(=O)(=O)OCC(=O)C2CCC3(CCCC3)CC2)cc1 , on esterase solution prepared from a purified microsome fraction of the liver of a rat, turned out to be 5.52

So the reported pIC50 for CC1(C)CCC(C(=O)COS(=O)(=O)c2ccccc2)CC1 , on esterase solution prepared from a purified microsome fraction of the liver of a rat, turned out to be 8.24

So the reported pIC50 for Cc1ccc(S(=O)(=O)OCC(=O)C2(C)CCC(C(C)C)CC2)cc1 (stereo not shown) , on esterase solution prepared from a purified microsome fraction of the liver of a rat, turned out to be 6.25

----------
Procedure details: Heat-stability on storage at 40° C. (HPLC content of undecomposed compound)
Format: physicochemical
Reported conditions: solid storage, 15th day
Readout type: remaining at 360 h (%)
The answer is to be given in %; state only the numeric part.

Use these answered entries as a reference point.
O=C(COS(=O)(=O)c1ccccc1)C1CCCCC1 [Compound C-5] | 15
Cc1ccc(S(=O)(=O)OCC(=O)[C@H]2CC[C@H](C(C)(C)C)CC2)cc1 [Compound C-2] | 16
Cc1ccc(S(=O)(=O)OCC(=O)C2(C)CCC(C(C)C)CC2)cc1 (stereo not drawn) [Compound T-8] | 100
CCOc1ccc(S(=O)(=O)OCC(=O)C2CCCCC2)cc1 [Compound C-6] | 14
COc1ccc(S(=O)(=O)OCC(=O)C2(C)CCC(CC(C)C)CC2)cc1 (stereo not drawn) [Compound T-13] | 100
Cc1cc(C)c(S(=O)(=O)OCC(=O)C2(C)CCC(C(C)C)CC2)c(C)c1 (stereo not drawn) [Compound T-6] | 100

Now consider the entry below.
Short answer for CC(C)[C@H]1CC[C@H](C(=O)COS(=O)(=O)c2ccccc2)CC1 [Compound C-1] : remaining at 360 h was 14

----------
Target or test system: chymotripsin (Bos taurus, UniProt P00766)
Procedure details: Chymotripsin inhibiting activity (ATEE hydrolysis)
Format: biochemical
Reported conditions: 1 × 10^-4 mole; pH 8.0, 37° C., ATEE substrate
Values of Chymotripsin inhibition (%) greater than or equal to 40% map to 1 (yes); values below map to 0 (no).

# example entries with known answers
CCCC1(C)CCC(C(=O)COS(=O)(=O)c2ccccc2)CC1 (centres unmarked) | 0 (no)
CC1(C)CCC(C(=O)COS(=O)(=O)c2ccccc2)CC1 | 1 (yes)
O=C(COS(=O)(=O)c1ccccc1)C1CCC2(CCCCC2)CC1 | 1 (yes)

We next turn to a different compound, shown below.
For this compound, is measured Chymotripsin inhibition (%) 40% or higher? CC(C)[C@H]1CC[C@](C)(C(=O)COS(=O)(=O)c2ccccc2)CC1
0 (no)

----------
Procedure details: Heat-stability on storage at 40° C. (HPLC content of undecomposed compound)
Type: physicochemical
Reported conditions: solid storage, 12th day
Protocol: The following compounds (200 mg each) were placed in transparent sample bottles, and left to stand at a constant temperature of 40° C. for 15 days. […] The content was measured by high performance liquid chromatography using a 60:40 mixture of acetonitrile and water as an eluent, and the percentages of the content of the undecomposed compound were calculated based on the initial content.
Readout type: remaining at 288 h (%)
The answer is to be given in %; state only the numeric part.

Use these answered entries as a reference point.
Cc1ccc(S(=O)(=O)OCC(=O)C2(C)CCC(C(C)C)CC2)cc1 (stereo not drawn) | 100
CC(C)[C@H]1CC[C@H](C(=O)COS(=O)(=O)c2ccccc2)CC1 | 92
CCOc1ccc(S(=O)(=O)OCC(=O)C2CCCCC2)cc1 | 80
CC(C)[C@H]1CC[C@](C)(C(=O)COS(=O)(=O)c2ccccc2)CC1 | 100

Short answer for Cc1cc(C)c(S(=O)(=O)OCC(=O)C2CCC(C(C)C)CC2)c(C)c1 (stereo not drawn) : remaining at 288 h was 95

Short answer for Cc1cc(C)c(S(=O)(=O)OCC(=O)C2(C)CCC(C(C)C)CC2)c(C)c1 (stereo not drawn) : remaining at 288 h was 100

Short answer for O=C(CCC1CCCCC1)COS(=O)(=O)c1ccccc1 : remaining at 288 h was 72

Short answer for Cc1cc(C)c(S(=O)(=O)OCC(=O)C2CCCCC2)c(C)c1 : remaining at 288 h was 95

Short answer for COc1ccc(S(=O)(=O)OCC(=O)C2(C)CCC(CC(C)C)CC2)cc1 (stereo not drawn) : remaining at 288 h was 100

----------
Measured Content (%) Start by item
Procedure details: Heat-stability on storage at 40° C. (HPLC content of undecomposed compound)
Assay type: physicochemical
Reported conditions: start (initial content)
The answer is to be given in %; state only the numeric part.

Use these answered entries as a reference point.
COc1ccc(S(=O)(=O)OCC(=O)C2(C)CCC(CC(C)C)CC2)cc1 (stereo not drawn) | 100
O=C(CCC1CCCCC1)COS(=O)(=O)c1ccccc1 | 100
CCOc1ccc(S(=O)(=O)OCC(=O)C2CCCCC2)cc1 | 100
Cc1ccc(S(=O)(=O)OCC(=O)C2(C)CCC(C(C)C)CC2)cc1 (stereo not drawn) | 100
Cc1cc(C)c(S(=O)(=O)OCC(=O)C2(C)CCC(C(C)C)CC2)c(C)c1 (stereo not drawn) | 100
Cc1cc(C)c(S(=O)(=O)OCC(=O)C2CCCCC2)c(C)c1 | 100
CC(C)[C@H]1CC[C@](C)(C(=O)COS(=O)(=O)c2ccccc2)CC1 | 100
Cc1ccc(S(=O)(=O)OCC(=O)[C@H]2CC[C@H](C(C)(C)C)CC2)cc1 | 100
O=C(COS(=O)(=O)c1ccccc1)C1CCCCC1 | 100
Cc1cc(C)c(S(=O)(=O)OCC(=O)C2CCC(C(C)C)CC2)c(C)c1 (stereo not drawn) | 100

Short answer for CCOc1ccc(S(=O)(=O)OCC(=O)C2CCC(CC)CC2)cc1 (stereo not drawn) : Content (%) Start was 100

Short answer for CC(C)[C@H]1CC[C@H](C(=O)COS(=O)(=O)c2ccccc2)CC1 : Content (%) Start was 100
